- ASSAY_TEXT: yeast display, Sf9 membrane polyspecificity reagent, FACS + sequencing; frameworks hold sequencing errors
EXPERIMENTAL_ENDPOINT: polyreactivity (PSR sort gate)

SEQUENCE_TEXT	RESULT
QVQLVESGGGLVQAGGSLRLSCAASGSTFDTYGMGWYIQAPGKERELDASISSRGGSTYYADSVEGRFTISRDNAKNSVYLQMNSLKPDDTAVYYCAADWLSWFHGYGMYYWGQGTKVTVSS	low polyreactivity
QVQLVESGGGLVQAGGSLRLSCAASGRTFVKNNMGWYRQSPGKERELVAAISSSGGSTYYADSVKGRFTISRDNAKNSVYLHMNSLNPEDTAVYFCAVSYPYKHAGGWYAYNYWGQGTQVTVSS	high polyreactivity
QVQLVESGGGLVQAGGSLRLSCAASGNTFYHYVMGWYRQAPGKESELVAAISRSGGSTYYADSVKGRFTISRDNAKNTVYLQMNSLKPEDTAVYYCAARTSIGLLYDYWGQGTQVTVSS	high polyreactivity
QVQLVESGGGLVQAGGSLRLSCAASGRTFGYYVMGCYRQAPGKERELVAAISASGGSTYYADSVKGRFTISRDNAKNTVYLQMNSLKPEDTAVYYCNADYLSQPDWYYFYLFDYWGQGTQVTVSS	high polyreactivity

# lookup: polyreactivity (PSR sort gate) of QVQLVDSGGGLVQAGGSLRLSCAASGSTFSLYAMGWYRQAPGKEREMVASITWGGGSTYADSVKGRFTISRDNAKNTVYLQMNSLKPEDTAVYYCARKFRYRVLYDFAYDHWGLGTQVTVSS low polyreactivity

====

- ASSAY_TEXT: yeast display, Sf9 membrane polyspecificity reagent, FACS + sequencing; frameworks hold sequencing errors
EXPERIMENTAL_ENDPOINT: polyreactivity (PSR sort gate)

SEQUENCE_TEXT	EXPERIMENTAL_ENDPOINT	RESULT
QVQLVESGGGLVQAGGSLRLSCAASGRTSWYYAMGWYRQAPGKERELVAAITASGGSTYADSVKWRFTISRDNAKNTVYLQMNSLKPEDTAVYYCAAERPYSRVGYYYWGQGTQVTVSS	polyreactivity (PSR sort gate)	high polyreactivity
QDQLVESGGGLVQAGGSLRLSCAASRLTFYVYAMGWYRQAPGKERELVAAISGRGGRTYYADSVKGRFTISRDNAKNTVYLQMNSLKPEDTAVYDCAPRYPRYRYVEYGYNYWGQGTQVTVSS	polyreactivity (PSR sort gate)	high polyreactivity

====

- ASSAY_TEXT: yeast display, Sf9 membrane polyspecificity reagent, FACS + sequencing; frameworks hold sequencing errors
EXPERIMENTAL_ENDPOINT: polyreactivity (PSR sort gate)

Sample records with polyreactivity (PSR sort gate):
SEQUENCE_TEXT	polyreactivity (PSR sort gate)
QVQLVESGGGLVQAGGSLRLSCAASGSIFEYYAMGWYRQAPGKERELVATITGTDSTYYADSVKGRFTISRDNAKNTVYLQMNSLKPEDTADCAADRAASRPDYDYWGQGTQVTVSS	low polyreactivity
QVQLVESGGGLVQAGGSLRLSCAASGGIFGYYVMGWYRQAAGNERELVAVITRGGSTNYADSVKGRFTISRDNAKNTVYLQMNSLKPEDTAVYYCAKDVPYRRVRSEYWGQGTQVTVSS	low polyreactivity
QVQLGESGGGLVHEGGSLRLSCAASGFINFANTMGLYRQAPGKERELVAAITSDGSTYYADSVKGRFTISRDNAKNTVYLQMNSLKPEDTAVYYCNAQSNYADLAYWNDYWGQGTQVTVSS	low polyreactivity
QVQLVESGGGLVQAGGSLRLSCPASGSIFQGNAMGWYRQAPGKERELVAAISWSGDSTYYADSVKGRFTISRDNAKNTVYLQMNSLKPEDTAVYYCNAEWTRDFYEYDYWGQGTQVTVSS	low polyreactivity
QVQLVESGGGVVQAGGSLRLSCAASGITFQGDDMGWYRQAPGKEREFVAAITWNGGSTYYADSVKGRFTISRDHAKNTVFLQMNSLKPEDTAVYYCAADWSITYGDGGYWGQGTQVTVSS	low polyreactivity
QVQLVESGGVLVHAGGSLRLSCAASGITFEYYTMGWYRKAPGKERELVAAISSGGGSTYYADSVKGRFTISRDNAKNTVYLQMKSLKPEDTAVYYCAARGYRADQWEYDYWGQGTQVTVSS	low polyreactivity
QVQLVESGAGLVQAGGSLRLSCAASGYTFYFYAMGWYRQAPGKERELVAAITGGGTTSYADSVKGRFTISRDNAKNTVYLQMNSLKPEDTAVYYCNVLFADKSDYCGQGTQVTVSS	low polyreactivity
QVQLVESCGGLVQAGGSLRLSCAASGRTFYKNTMGWYRQAPGKERELVATISQRGGSTYYADSVKGRFTISRDNAKNTVFLQMHSLKPEDTAVYYCNARHYYIWWRSPTRTAMNYWGQGTQVTVSS	high polyreactivity

Requested field: polyreactivity (PSR sort gate). Item: QVQIVESGRGLVQAGGSLSLSCAASGNIFYRYTMGWYRQAPGKERELVAAISRTGGSTYYADSVKGRFTISRDNAKNTVYLQMNSLKPEDTAVYYCAVRYMDPPYFYSKRFGYWGQGTQVTVSS high polyreactivity

Now consider QVQLVESGGGLVQAGGSLRLTCAASGSITSINAMGWYRQAPGKERELVAAINWSSGSTYYADSVKGRFTISRDYAKNTVYLQKISLKPEDTAVYYCAVDRYFFAGYYGYEYWGQGTQGTVSS and answer again. high polyreactivity

Note, next up: QVQLVESGGGLVQAGGSLRLSCAASGRTLVHYAMGWYRQAPGKERELVAAISIGGDSTYAVSVKGRFTISRDNAKNTVYLQMNSLKPEDTAVYYCAASGWWDFFDPYFKFDYWGQGTQVTVSS low polyreactivity

Same question, QVQLVESGGGFVQAGGSLRLSCAASGRIRFYAMGWYRQAPGKERELVAAISSSGGSTYYADSVKGSFTISRDNAKNTVYLQMNSLKPEDTAVYYCAAAWYYLGTRAQLYDYWGQGTQVTVSS this time low polyreactivity

Can you handle QVQLVESGGGLVQAGGSLRLSCAASGRIFRYNAMGWYRQAPGKERELVAAISTRGGNTYYADSVKGRFTISRDNAKNTVYLQMNSLKPEDTAVYYCNARSSLPYNYWGQGTQVTVSS next? high polyreactivity

Do the same for QVHLVESGGGLVQAGGSLRLSCAASGRISQNALGWYRQAPGKEREVVAAITFSGGSTYYADSVKGRFTISRDNATNTVYLQMNSLKPEDNAVYYCNVRLYTDGLKYDYWGQGTQVTVSS please low polyreactivity
